Test system: NCI-H522 lung
test summary: NCI tumour cell line growth inhibition, 48 h; in the data active means GI50 below about 0.43 µM; inactive means the rest
Would you mind answering with one of these outcomes? y (active), n (inactive)

Some solved entries appear below for comparison.
{"compound": "N#CC1=C(N)NC(=O)C(C#N)C12Nc1ccccc1S2 (stereo unspecified)", "category label": "n"}
{"compound": "ClCCCN1CCN(CCCl)CC1", "category label": "n"}

Prompt: Would you mind telling me which call this test gave `COc1ccc(CCN2CCCn3c2nc2ccccc2c3=O)cc1` ?
Completion: y

Prompt: Would you mind telling me which call this test gave `COc1ccc(-c2cn(C)c3c2-n2cccc2C3=O)cc1O` ?
Completion: n

Prompt: Would you mind telling me which call this test gave `COc1ccc(Cn2cc3c(c2-c2ccccc2)CCc2cnoc2-3)cc1` ?
Completion: y

Prompt: Would you mind telling me which call this test gave `O=C(c1ccc(Cl)cc1Cl)N1CCN(C(=O)c2ccc(Cl)cc2Cl)C1=S` ?
Completion: n

----------
Test system: MDA-MB-435
Would you mind answering with one of these outcomes? active, inactive

{"compound": "NC(CSC(c1ccccc1)(c1ccccc1)c1ccccc1)C(=O)O (centres undefined)", "category label": "active"}
{"compound": "COc1ccc(-c2cn(C)c3c2-n2cccc2C3=O)cc1O", "category label": "inactive"}
{"compound": "CCC/C=C/C=C/C(=O)OC1/C(=C/C(=O)OC)CC2CC(C(C)O)OC(=O)CC(O)CC3CC(OC(C)=O)C(C)(C)C(O)(CC4C/C(=C/C(=O)OC)CC(/C=C/C(C)(C)C1(O)O2)O4)O3 (centres undefined)", "category label": "inactive"}
{"compound": "CCCC(=O)Oc1ccc(/C(=C(\\C)c2ccc(Cl)cc2)c2ccc(OCCN(CC)CC)cc2)cc1", "category label": "inactive"}

Prompt: Would you mind telling me which call this test gave `COc1ccc(/C=C\c2cc(OC)c(OC)c(OC)c2)cc1NC(=O)/C=C/c1ccc(OC)c(OC)c1` ?
Completion: active

Prompt: Would you mind telling me which call this test gave `CN[C@@H](C)C(=O)N[C@H](C(=O)N1CCC[C@H]1c1nc(C(=O)c2ccc(F)cc2)cs1)C1CCCCC1` ?
Completion: inactive

----------
Tested on: SF-539 CNS
test summary: NCI tumour cell line growth inhibition, 48 h
value type: TGI

{"molecule": "COc1ccc(-c2cn(C)c3c2-n2cccc2C3=O)cc1O", "TGI": "16.5 µM"}
{"molecule": "COc1ccc(SCc2cc(OC)ccc2OC)cc1", "TGI": "> 100 µM"}

get_value(item= Nc1cc(C2CCCc3c2[nH]c2ccccc32)ccc1O (stereo not drawn) , readout=TGI) returns > 100 µM

----------
System: NCI-H23 lung
test summary: NCI tumour cell line growth inhibition, 48 h
value type: GI50

{"compound": "CC(C)(C)OC(=O)NCCCCCCCCCn1c2c(c3ccccc3c1=O)C(=O)c1ccccc1-2", "target": "NCI-H23 lung", "GI50": "37 µM"}

get_value(item= N#CC1=C(N)NC(=O)C(C#N)C12Nc1ccccc1S2 (stereo not drawn) , readout=GI50) returns 41.2 µM

get_value(item= `CN(C)S(=O)(=O)c1cccc(C(=O)Nc2nc(-c3ccc(F)c(F)c3)cs2)c1` , readout=GI50) returns 10.3 µM

get_value(item= `O=C1/C(=C/c2ccc(F)cc2)COc2ccc(O)c(O)c21` , readout=GI50) returns 2.65 µM

get_value(item= `CN(C)CCNC(=O)c1ccc2c(c1)oc1cc3ccccc3c(=O)n12` , readout=GI50) returns 31.8 µM
